Items are presented alongside their recorded EC50 of PTHrP(1-34), cAMP assay, with 267 nM IgG.
Biological target: T1, human PTH1R on Saos-2 cells (endogenous) (human, UniProt Q03431 27-593)
T1 sequence (looked up): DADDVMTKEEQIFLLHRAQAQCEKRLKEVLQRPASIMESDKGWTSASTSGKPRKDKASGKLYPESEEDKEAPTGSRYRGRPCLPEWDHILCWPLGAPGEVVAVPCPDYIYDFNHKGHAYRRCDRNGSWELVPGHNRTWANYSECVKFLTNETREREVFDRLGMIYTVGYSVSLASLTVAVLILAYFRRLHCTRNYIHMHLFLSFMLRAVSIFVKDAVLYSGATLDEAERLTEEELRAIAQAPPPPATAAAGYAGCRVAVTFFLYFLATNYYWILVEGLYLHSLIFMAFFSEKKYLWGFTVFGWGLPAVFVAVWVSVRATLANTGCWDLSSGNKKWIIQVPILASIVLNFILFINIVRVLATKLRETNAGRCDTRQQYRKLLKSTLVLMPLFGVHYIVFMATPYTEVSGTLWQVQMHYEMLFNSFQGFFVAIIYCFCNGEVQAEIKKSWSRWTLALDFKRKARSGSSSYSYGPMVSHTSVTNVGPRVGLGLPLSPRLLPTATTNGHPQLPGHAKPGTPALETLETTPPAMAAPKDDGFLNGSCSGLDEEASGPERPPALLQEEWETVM
Assay: cell-based or functional assay
Form entry: value (nM) — number only.

Binder	Result
XPA.85.341 (antibody, V domains shown, Light-chain-shuffled variant of XPA.85.017) VH: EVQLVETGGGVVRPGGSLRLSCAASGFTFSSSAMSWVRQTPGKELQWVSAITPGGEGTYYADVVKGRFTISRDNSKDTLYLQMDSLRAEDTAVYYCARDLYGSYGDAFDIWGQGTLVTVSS VL: SYELTQPSSVSVSPGQTASITCSGDKLGEKYASWYQQKPGQSPVLVMFEDTKRPSGIPERFSGSNSGNTATLTISGTQAEDEADYYCQAWDSSWVFGGGTQLTVL	63
XPA.85.337 (antibody, V domains shown, Light-chain-shuffled variant of XPA.85.017) VH: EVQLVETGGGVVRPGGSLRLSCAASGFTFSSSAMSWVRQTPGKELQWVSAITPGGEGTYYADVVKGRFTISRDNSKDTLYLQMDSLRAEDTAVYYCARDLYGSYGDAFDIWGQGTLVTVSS VL: SYVLTQPPSVSVAPGQTATITCSGDDFGDKYVSWYQQKPGQSPLLVIFQDNERPSGIPERFSGSNSGNTATLTISGTQAMDEADYYCQAWDSNWVFGGGTKVTVL	27.1
XPA.85.339 (antibody, V domains shown, Light-chain-shuffled variant of XPA.85.017) VH: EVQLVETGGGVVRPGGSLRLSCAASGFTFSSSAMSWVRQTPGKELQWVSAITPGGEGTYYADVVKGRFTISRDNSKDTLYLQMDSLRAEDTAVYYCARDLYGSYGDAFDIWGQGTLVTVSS VL: SYELTQPPSVSVAPGQTATITCSGDRLGDKFISWYQQKPGQSPLLVIFEDNERPSRIPERFSGSNSGNSATLTISGTQAVDEADYYCQAWDSSWVFGGGTQLTVL	31.4
XPA.85.287 (antibody, V domains shown, also called Ab287) VH: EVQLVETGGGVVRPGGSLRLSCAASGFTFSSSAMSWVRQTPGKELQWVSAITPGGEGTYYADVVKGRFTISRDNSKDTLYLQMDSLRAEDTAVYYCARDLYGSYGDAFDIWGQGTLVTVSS VL: SYVLTQPPSVSVAPGQTARITCSGDKLGDRYVSWYQQKPGQSPVLVMFEDTGRPAGIPERFSGSNSGNTATLTISGTQAEDEADYYCQAWGTSWVFGGGTQLTVL	62.2

Q: Supply reported EC50 of PTHrP(1-34), cAMP assay, with 267 nM IgG belonging to this binder: XPA.85.338 (antibody, V domains shown, Light-chain-shuffled variant of XPA.85.017) VH: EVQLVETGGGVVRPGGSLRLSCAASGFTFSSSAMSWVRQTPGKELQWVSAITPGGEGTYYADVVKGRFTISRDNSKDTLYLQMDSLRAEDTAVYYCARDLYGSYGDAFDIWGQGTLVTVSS VL: SYELTQPPSVSVAPGQTATITCSGDKLGDKYASWYQQKPGQSPVLVMFENRDRPSGIPDRFSGSNSGNTATLTISGTQAMDEADYYCQAWDSSTAWVFGGGTQLTVL
Ans: 33

Q: Retrieve EC50 of PTHrP(1-34), cAMP assay, with 267 nM IgG measured for XPA.85.336 (antibody, V domains shown, Light-chain-shuffled variant of XPA.85.017) VH: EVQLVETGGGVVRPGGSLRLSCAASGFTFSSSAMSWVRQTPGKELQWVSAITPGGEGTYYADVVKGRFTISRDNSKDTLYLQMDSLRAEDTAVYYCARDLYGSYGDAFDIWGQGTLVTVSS VL: QSVLTQPPSVSAAPGQKVTISCSGTGSNIGSNYVAWYQQLPGTAPKLLIYDDNKRPSGTPDRFSGSKSGTSATLVIAGLQTGDEADYYCGTWDNTLNVGGVFGGGTQLTVL and print it.
Ans: 23.6

Q: Query EC50 of PTHrP(1-34), cAMP assay, with 267 nM IgG for XPA.85.340 (antibody, V domains shown, Light-chain-shuffled variant of XPA.85.017) VH: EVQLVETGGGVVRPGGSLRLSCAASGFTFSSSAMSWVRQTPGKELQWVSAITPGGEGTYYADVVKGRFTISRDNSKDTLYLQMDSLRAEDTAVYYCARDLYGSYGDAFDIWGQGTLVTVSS VL: SYVLTQPPSVSVAPGQTASITCSGDNLGEKFVSWYQQKAGQSPVLVIFEDNKRPSGIPERFAGSNSGNRATLTIRGTQAEDEADYYCQAWDSSWVFGGGTQLTVL
Ans: 11.8

Q: Determine from records and report EC50 of PTHrP(1-34), cAMP assay, with 267 nM IgG for XPA.85.335 (antibody, V domains shown, Light-chain-shuffled variant of XPA.85.017) VH: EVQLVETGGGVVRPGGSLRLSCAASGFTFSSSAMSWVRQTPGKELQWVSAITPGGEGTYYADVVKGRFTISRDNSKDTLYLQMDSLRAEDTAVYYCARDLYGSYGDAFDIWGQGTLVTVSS VL: QSVLTQPPSVSAAPGQRVTISCSGNTSNIGNNFVSWYQQLPGTAPKLLIYDDNKRPSGIPDRFSGSKSGTSATLGISGLQTGDEADYYCGTWDNSLNPPWVFGGGTQLTVL
Ans: 6.41
